# System: OVCAR-5 ovarian
# measurement description: NCI-60 one-dose screen, 48 h (100 = growth as untreated, 0 = no growth, -100 = all killed)
# experimental context: 10 µM unless noted
The panel holds about 83,000 compounds, 20% with a hit somewhere; the sample as a whole holds those more often.
Class (required): determined from growth; valid ranges are c1 (below 50%), c2 (50% to below 80%), c3 (80% or more)

O=C1CCCc2cc(OCC(=O)N3CCCCC3)ccc2N1; c3
COc1ccc(-c2ccnc(SCc3cc4cc(OC)ccc4[nH]c3=O)n2)cc1; c1
Nc1nc(-c2ccccc2)c(N=Nc2ccc([N+](=O)[O-])cc2Cl)s1; c3
CN1CCN(c2ccc3c(c2)nc(NNC(=O)c2cnccn2)c2cccn23)CC1; c1
COc1ccc(C(=O)/C=C/c2ccccc2Cl)cc1S(N)(=O)=O; c3
CC(=O)Nc1cccc(Nc2nc(NCc3ccccc3)c3ccccc3n2)c1; c1

Q: Would you mind sorting O=C1NC(=O)c2c1c1c3cc(Br)ccc3[nH]c1c1oc3ccc(F)cc3c21 into the appropriate category?
Result: c2

Q: Just checking, what class would you give Cc1cccc(NC(=O)CN2CCN(c3ncnc4c3cnn4-c3ccccc3)CC2)c1 here?
Result: c3

Q: Hi, small favor: classify CCCCOc1ccc(NC(=O)c2sc3nc(C)ccc3c2N)cc1 by its growth when you get a moment.
Result: c1

Q: Class label required: CCCCn1c(O)c(N=Nc2nc(-c3cc4ccccc4oc3=O)cs2)c2cc(Br)ccc21
Result: c3

Q: Returns: class label. Input: COc1ccc2c(c1)c(/C=N/Nc1ccc3ccccc3n1)cn2C
Result: c1

Q: Dear colleague, I would appreciate it if you could identify the bin for COc1ccc(/C=C/c2nc3ccccc3nc2Nc2cccc(C)c2)cc1 and reply at your convenience.
Result: c3

Q: Kindly identify the class of O=C(COc1ccc(NC(=O)Nc2ccc(Cl)c(Cl)c2)cc1)N=Nc1c(O)[nH]c2ccccc12 .
Result: c1

Q: Which class holds O=C(O)c1ccc(-c2ccc(/C=N/NC(=O)c3[nH]c4ccc(Br)cc4c3-c3ccccc3)o2)cc1 ?
Result: c2

Q: Place this compound in its band: CC(C)CCNC(=O)N/C(N)=N/c1nc2ccccc2s1
Result: c3

----------
# Test system: K-562 leukemia
# measurement description: NCI-60 one-dose screen, 48 h (100 = growth as untreated, 0 = no growth, -100 = all killed)
# experimental context: 10 µM unless noted
# Method: Cells are grown in 96 well plates and exposed to the test compound for 48 hours. Compounds are tested at a single concentration, which is 10^-5 M for most compounds. The reported endpoint is percent growth (GI% or GIPRCNT), where numbers from 0 - 100% represent growth inhibition, and numbers from -100% - 0 represent cell death. For example, a value of 40 represents 60% growth inhibition. A value of 0 means no net growth occurred over the course of the experiment. […]
This is part of a sample that, as a whole, favours compounds with a hit. Of some 83,000 tested, about 20% had one in any assay.
Quick rule for you: growth at 20% or higher means YES, lower means NO.

Q: Record O=C1/C(=C/C2=Cc3ccccc3OC2)SC(=S)N1c1ccccc1F ; criterion: growth no lower than 20%. Met?
Result: YES

Q: Quick check, growth >= 20%? C=C1CC[C@@H]2[C@]3(C)COC(c4cn[nH]c4-c4ccc(C)cc4)O[C@@H]3CC[C@@]2(C)[C@@H]1C/C=C1/C(=O)OCC1O (some centres undefined)
Result: NO

Q: hey, is growth for this one >= 20%? O=C(N/N=C/c1ccc(-c2ccc(O)cc2)s1)c1[nH]c2ccc(Br)cc2c1-c1ccccc1
Result: NO

Q: Reported growth reaches at least 20% for O=c1onc(-c2cc3ccccc3nc2Cl)n1-c1cccc2ccccc12 ?
Result: NO

Q: Does C#CCOc1cc(N(CC)CC)ccc1C(C(=O)NC(C)(C)C)N(C(=O)C1CCc2cc(F)ccc2O1)c1ccccc1Br (centres undefined) have a reported growth of at least 20%?
Result: YES

Q: Assess whether reported growth for CC1CCCCN1CCCNC(=O)N/C(N)=N/c1nc2ccccc2s1 (centres undefined) sits at 20% or higher.
Result: NO

Q: Hello, I need to know if Nc1nc(-c2ccccc2)c(N=Nc2ccc(Cl)cc2[N+](=O)[O-])s1 has measured growth not below 20%. Thanks!
Result: YES

Q: Please check the record C/C(=N\N=C\c1cc([N+](=O)[O-])ccc1Cl)c1ccc2c(c1)Nc1ccccc1S2 and state if its growth is at or above 20%.
Result: YES

Q: State whether the measured growth reaches 20%, counting equality as reaching it, for CC12CC[C@@H]3[C@]4(C)COC(c5cn[nH]c5-c5ccc(Br)cc5)O[C@@H]4CC[C@@]3(C)[C@@H]1CC(C1=CCOC1=O)O2 (some centres undefined)
Result: NO

// provenance: PubChem BioAssay (NCI)
